Item-by-item account of viability, T/C
- Test system: KRAS-mutant PDC multicell tumor spheroid viability
- experiment_notes: Anticancer human tumor 521955-158-R2-J5-PDC patient-derived pancreatic carcinoma cell line growth inhibition [KRAS2]
- protocol_conditions: second compound 0.1 µM; first compound 3.16 µM; active compounds read low
Output spec: scalar in %, unitless text.

compound: CC(C)NCC(C(=O)N1CCN(c2ncnc3c2C(C)CC3O)CC1)c1ccc(Cl)cc1 (stereo not given) + CNCc1ccccc1-c1csc(C(C)Nc2nc(C)nc3cc(OC)c(OC)cc23)c1
viability, T/C, %: 84.1
//
compound: CC1(C)CCC(CN2CCN(c3ccc(C(=O)NS(=O)(=O)c4ccc(NCC5CCOCC5)c([N+](=O)[O-])c4)c(Oc4cnc5[nH]ccc5c4)c3)CC2)=C(c2ccc(Cl)cc2)C1 + COc1cc2nc(C)nc(NC(C)c3cc(N)cc(C(F)(F)F)c3)c2cc1OC1CCOC1
viability, T/C, %: 82.9
//
compound: CC(C)NCC(C(=O)N1CCN(c2ncnc3c2C(C)CC3O)CC1)c1ccc(Cl)cc1 (stereo not given) + CC1OCC2(CCN(c3cnc(Sc4ccnc(N)c4Cl)c(N)n3)CC2)C1N
viability, T/C, %: 74.3

### Prompt Please report viability, T/C with KRAS-mutant PDC multicell tumor spheroid viability for item Cn1nccc1Nc1nccc(-c2cc3c(s2)C(C)(C)N(CCN2CCOCC2)C3=O)n1 + CNCc1ccccc1-c1csc(C(C)Nc2nc(C)nc3cc(OC)c(OC)cc23)c1 .
### Response 36.5

### Prompt Recall the reported viability, T/C of CC(=O)OC12COC1CC(O)C1(C)C(=O)C(O)C3=C(C)C(OC(=O)C(O)C(NC(=O)OC(C)(C)C)c4ccccc4)CC(O)(C(OC(=O)c4ccccc4)C21)C3(C)C (stereo not given) + CC1OCC2(CCN(c3cnc(Sc4ccnc(N)c4Cl)c(N)n3)CC2)C1N on KRAS-mutant PDC multicell tumor spheroid viability and write it down.
### Response 19.7

----------
- Test system: KRAS-mutant PDC multicell tumor spheroid viability
- experiment_notes: Anticancer human tumor 521955-158-R2-J5-PDC cell line growth inhibition [KRAS2];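 note: viability read after seven days of drug exposure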
- protocol_conditions: second compound 0.1 µM; first compound 0.0316 µM; active compounds read low
property_label: viability, T/C

Solved entries (count: 3):
molecule: COC(=O)c1ccc2c(C(=Nc3ccc(N(C)C(=O)CN4CCN(C)CC4)cc3)c3ccccc3)c(O)[nH]c2c1 + CNCc1ccccc1-c1csc(C(C)Nc2nc(C)nc3cc(OC)c(OC)cc23)c1
viability, T/C: 87.3%
--
molecule: CC(=O)Nc1cccc(-n2c(=O)n(C3CC3)c(=O)c3c(Nc4ccc(I)cc4F)n(C)c(=O)c(C)c32)c1 + C=CC(=O)N1CCN(c2nc(OCC3CCCN3C)nc3c2CCN(c2cccc4cccc(C)c24)C3)CC1CC#N
viability, T/C: 10.5%
--
molecule: COc1cc2nccc(Oc3ccc(NC(=O)C4(C(=O)Nc5ccc(F)cc5)CC4)cc3)c2cc1OC + CC1OCC2(CCN(c3cnc(Sc4ccnc(N)c4Cl)c(N)n3)CC2)C1N
viability, T/C: 75.7%

### Prompt Report viability, T/C on KRAS-mutant PDC multicell tumor spheroid viability for this entry: Cn1nccc1Nc1nccc(-c2cc3c(s2)C(C)(C)N(CCN2CCOCC2)C3=O)n1 + C=CC(=O)N1CCN(c2nc(OCC3CCCN3C)nc3c2CCN(c2cccc4cccc(C)c24)C3)CC1CC#N
### Response 98.2%

----------
- Test system: KRAS-mutant PDC multicell tumor spheroid viability
- experiment_notes: Anticancer human tumor 521955-158-R2-J5-PDC cell line growth inhibition [KRAS2];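 note: viability read after seven days of drug exposure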
- protocol_conditions: second compound 0.0316 µM; first compound 0.1 µM; active compounds read low
Entries and their measured viability, T/C follow.

Consider the reported viability, T/C for these compounds:
compound: COc1cc2nccc(Oc3ccc(NC(=O)C4(C(=O)Nc5ccc(F)cc5)CC4)cc3)c2cc1OC + C=CC(=O)N1CCN(c2nc(OCC3CCCN3C)nc3c2CCN(c2cccc4cccc(C)c24)C3)CC1CC#N
viability, T/C: 112%

compound: COc1cc(Nc2ncc3c(n2)-c2ccc(Cl)cc2C(c2c(F)cccc2OC)=NC3)ccc1C(=O)O + C=CC(=O)N1CCN(c2nc(OCC3CCCN3C)nc3c2CCN(c2cccc4cccc(C)c24)C3)CC1CC#N
viability, T/C: 33.7%

compound: CCN1CCN(Cc2ccc(Nc3ncc(F)c(-c4cc(F)c5nc(C)n(C(C)C)c5c4)n3)nc2)CC1 + C=CC(=O)N1CCN(c2nc(OCC3CCCN3C)nc3c2CCN(c2cccc4cccc(C)c24)C3)CC1CC#N
viability, T/C: 85.9%

### Prompt Complete the entry with viability, T/C for CC1COCCN1c1cc(-c2ccnn2C)c2ccnc(-c3ccn[nH]3)c2n1 (stereo not given) + C=CC(=O)N1CCN(c2nc(OCC3CCCN3C)nc3c2CCN(c2cccc4cccc(C)c24)C3)CC1CC#N
### Response 10.9%

### Prompt Indicate its recorded viability, T/C; the compound in question is CC(=O)OC12COC1CC(O)C1(C)C(=O)C(O)C3=C(C)C(OC(=O)C(O)C(NC(=O)OC(C)(C)C)c4ccccc4)CC(O)(C(OC(=O)c4ccccc4)C21)C3(C)C (stereo not given) + C=CC(=O)N1CCN(c2nc(OCC3CCCN3C)nc3c2CCN(c2cccc4cccc(C)c24)C3)CC1CC#N
### Response 12.7%

----------
- Test system: KRAS-mutant PDC multicell tumor spheroid viability
- experiment_notes: Anticancer human tumor 521955-158-R2-J5-PDC cell line growth inhibition [KRAS2];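 note: viability read after seven days of drug exposure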
- protocol_conditions: second compound 10 µM; first compound 0.0316 µM; active compounds read low
Please respond with fulfilled when measured viability, T/C is strictly beneath 90%, and with not fulfilled in all other cases.

### Prompt Please let me know if COc1cc2nccc(Oc3ccc(NC(=O)C4(C(=O)Nc5ccc(F)cc5)CC4)cc3)c2cc1OC + COc1cc2nc(C)nc(NC(C)c3cc(N)cc(C(F)(F)F)c3)c2cc1OC1CCOC1 shows viability, T/C below 90%.
### Response not fulfilled

### Prompt Input CC(=O)Nc1cccc(-n2c(=O)n(C3CC3)c(=O)c3c(Nc4ccc(I)cc4F)n(C)c(=O)c(C)c32)c1 + C=CC(=O)N1CCN(c2nc(=O)n(-c3c(C)ccnc3C(C)C)c3nc(-c4c(O)cccc4F)c(F)cc23)C(C)C1 ; condition: viability, T/C strictly below 90%. Does it hold?
### Response fulfilled

### Prompt hey, is viability, T/C for CC(C)n1nc(-c2ccc3oc(N)nc3c2)c2c(N)ncnc21 + CC1OCC2(CCN(c3cnc(Sc4ccnc(N)c4Cl)c(N)n3)CC2)C1N lower than 90% or not?
### Response fulfilled

### Prompt Is the reported viability, T/C for CC(=O)Nc1cccc(-n2c(=O)n(C3CC3)c(=O)c3c(Nc4ccc(I)cc4F)n(C)c(=O)c(C)c32)c1 + COc1cc2nc(C)nc(NC(C)c3cc(N)cc(C(F)(F)F)c3)c2cc1OC1CCOC1 strictly below 90%?
### Response fulfilled

----------
- System: KRAS-mutant PDC multicell tumor spheroid viability
- experiment_notes: Anticancer human tumor 521955-158-R2-J5-PDC cell line growth inhibition [KRAS2];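 note: viability read after seven days of drug exposure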
- protocol_conditions: second compound 1 µM; first compound 0.316 µM; active compounds read low
property_label: viability, T/C (%)
The response must be a number in % with no trailing unit.

# annotated cases, reported viability, T/C shown
compound: Cn1nccc1Nc1nccc(-c2cc3c(s2)C(C)(C)N(CCN2CCOCC2)C3=O)n1 + CC1OCC2(CCN(c3cnc(Sc4ccnc(N)c4Cl)c(N)n3)CC2)C1N
measurement_target: KRAS-mutant PDC multicell tumor spheroid viability
viability, T/C (%): 57.5
--
compound: Cn1nccc1Nc1nccc(-c2cc3c(s2)C(C)(C)N(CCN2CCOCC2)C3=O)n1 + C=CC(=O)N1CCN(c2nc(OCC3CCCN3C)nc3c2CCN(c2cccc4cccc(C)c24)C3)CC1CC#N
measurement_target: KRAS-mutant PDC multicell tumor spheroid viability
viability, T/C (%): 41.6
--
compound: COc1cc(Nc2ncc3c(n2)-c2ccc(Cl)cc2C(c2c(F)cccc2OC)=NC3)ccc1C(=O)O + COc1cc2nc(C)nc(NC(C)c3cc(N)cc(C(F)(F)F)c3)c2cc1OC1CCOC1
measurement_target: KRAS-mutant PDC multicell tumor spheroid viability
viability, T/C (%): 39.4
--
compound: CC1OCC2(CCN(c3cnc(Sc4ccnc(N)c4Cl)c(N)n3)CC2)C1N (stereo not given) + CNCc1ccccc1-c1csc(C(C)Nc2nc(C)nc3cc(OC)c(OC)cc23)c1
measurement_target: KRAS-mutant PDC multicell tumor spheroid viability
viability, T/C (%): 76.8
--
compound: O=C(c1cc(Cc2n[nH]c(=O)c3ccccc23)ccc1F)N1CCN(C(=O)C2CC2)CC1 + C=CC(=O)N1CCN(c2nc(OCC3CCCN3C)nc3c2CCN(c2cccc4cccc(C)c24)C3)CC1CC#N
measurement_target: KRAS-mutant PDC multicell tumor spheroid viability
viability, T/C (%): 85

### Prompt Quote viability, T/C reported for Cn1nccc1Nc1nccc(-c2cc3c(s2)C(C)(C)N(CCN2CCOCC2)C3=O)n1 + C=CC(=O)N1CCN(c2nc(=O)n(-c3c(C)ccnc3C(C)C)c3nc(-c4c(O)cccc4F)c(F)cc23)C(C)C1 please.
### Response 85.3

### Prompt Look up viability, T/C of COc1cc2nccc(Oc3ccc(NC(=O)C4(C(=O)Nc5ccc(F)cc5)CC4)cc3)c2cc1OC + CNCc1ccccc1-c1csc(C(C)Nc2nc(C)nc3cc(OC)c(OC)cc23)c1 and report it.
### Response 114

### Prompt Write down viability, T/C measured for item COc1cc(Nc2ncc3c(n2)-c2ccc(Cl)cc2C(c2c(F)cccc2OC)=NC3)ccc1C(=O)O + C=CC(=O)N1CCN(c2nc(OCC3CCCN3C)nc3c2CCN(c2cccc4cccc(C)c24)C3)CC1CC#N
### Response 29.1

### Prompt Give viability, T/C for COc1cc(Nc2ncc3c(n2)-c2ccc(Cl)cc2C(c2c(F)cccc2OC)=NC3)ccc1C(=O)O + CNCc1ccccc1-c1csc(C(C)Nc2nc(C)nc3cc(OC)c(OC)cc23)c1
### Response 34.5
